Biological target: BTK (Homo sapiens)
Construct: purchased Reaction Biology Corporation
Sequence (Q06187 whole entry): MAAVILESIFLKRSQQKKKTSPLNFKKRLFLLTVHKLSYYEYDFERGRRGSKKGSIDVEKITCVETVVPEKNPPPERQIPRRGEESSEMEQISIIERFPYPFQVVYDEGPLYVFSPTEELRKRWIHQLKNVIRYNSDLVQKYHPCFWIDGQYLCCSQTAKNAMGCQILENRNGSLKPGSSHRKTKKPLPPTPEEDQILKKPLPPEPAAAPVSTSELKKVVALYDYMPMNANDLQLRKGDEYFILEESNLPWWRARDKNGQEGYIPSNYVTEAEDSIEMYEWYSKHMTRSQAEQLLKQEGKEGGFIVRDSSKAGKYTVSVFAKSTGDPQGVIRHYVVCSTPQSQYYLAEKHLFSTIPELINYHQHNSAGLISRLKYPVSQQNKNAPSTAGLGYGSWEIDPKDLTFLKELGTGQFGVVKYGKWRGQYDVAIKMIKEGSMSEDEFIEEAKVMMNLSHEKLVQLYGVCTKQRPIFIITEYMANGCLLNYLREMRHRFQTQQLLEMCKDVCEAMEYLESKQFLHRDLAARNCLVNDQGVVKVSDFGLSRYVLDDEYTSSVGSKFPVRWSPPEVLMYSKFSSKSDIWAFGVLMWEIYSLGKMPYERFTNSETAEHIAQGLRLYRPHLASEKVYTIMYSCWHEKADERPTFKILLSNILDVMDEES
Assay: BTK kinase assay (HotSpot, 33P ATP)
Type: biochemical
Settings: 1 μM compound, 10 μM ATP
VALUE_KIND: BTK @ 1 μM (% Inh)

>>> readout_value("Cc1ccc(-c2nn(C3Cc4ccccc4C3)c3ncnc(N)c23)cc1N")
96.3
>>> readout_value("COc1cc(-c2nn(C3Cc4ccccc4C3)c3ncnc(N)c23)ccc1N")
95.07
>>> readout_value("Nc1ncnc2c1c(-c1cc(O)cc(F)c1)nn2C1Cc2ccc(F)cc2C1 (stereo not shown)")
93.26
>>> readout_value("Nc1ncnc2c1c(-c1ccccc1CO)nn2C1Cc2ccccc2C1")
76.1
>>> readout_value("Nc1ncnc2c1c(N1CCOCC1)nn2C1Cc2ccccc2C1")
16.21
>>> readout_value("COc1ccc(-c2nn(C3Cc4ccccc4C3)c3ncnc(N)c23)cc1O")
89.54
>>> readout_value("COc1ccc(-c2nn(C3Cc4ccccc4C3)c3ncnc(N)c23)c(OC)c1OC")
18.4
>>> readout_value("Nc1ncnc2c1c(-c1ccc(Cl)c(O)c1)nn2C1Cc2ccccc2C1")
98.64
>>> readout_value("Nc1ncnc2c1c(-c1cc(O)c(F)c(C(F)(F)F)c1)nn2C1Cc2ccccc2C1")
9.91
>>> readout_value("COc1cc(-c2nn(C3Cc4ccccc4C3)c3ncnc(N)c23)cc(C#N)c1OC")
59.18
>>> readout_value("CCOc1ccc(-c2nn(C3Cc4ccccc4C3)c3ncnc(N)c23)cc1OC")
71.58
>>> readout_value("COc1cc(F)cc(-c2cn(C3Cc4ccccc4C3)c3ncnc(N)c23)c1")
91.61
>>> readout_value("Nc1ncnc2c1c(-c1cccc(CO)c1)nn2C1Cc2ccccc2C1")
72.19
>>> readout_value("COc1cc(-c2nn(C3Cc4ccccc4C3)c3ncnc(N)c23)ccn1")
66.77
>>> readout_value("CC(=O)Nc1cc(F)cc(-c2nn(C3Cc4ccccc4C3)c3ncnc(N)c23)c1")
30.02
>>> readout_value("Nc1ncnc2c1c(-c1ccc3c(c1)OCCCO3)nn2C1Cc2ccccc2C1")
33.05

====

Here the recorded BTK @ 0.1 μM (% Inh) is given for each entry.
Target: BTK (Homo sapiens)
Construct: purchased Reaction Biology Corporation
Experiment: BTK kinase assay (HotSpot, 33P ATP)
Assay type: biochemical
Settings: 0.1 μM compound, 10 μM ATP
VALUE_KIND: BTK @ 0.1 μM (% Inh)

>>> readout_value("COc1cc(-c2nn(C3Cc4ccccc4C3)c3ncnc(N)c23)ccc1N [Compound No. 66]")
"69.93 % Inh"
>>> readout_value("Nc1ncnc2c1c(-c1cc(F)c3c(c1)NCCO3)nn2C1Cc2ccc(F)cc2C1 (stereo not drawn) [compound 121]")
"6.55 % Inh"
>>> readout_value("Nc1ncnc2c1c(-c1cc(O)c(F)c(F)c1)nn2C1Cc2ccccc2C1 [Compound No. 81]")
"73.83 % Inh"
>>> readout_value("COc1ccc(-c2nn(C3Cc4ccccc4C3)c3ncnc(N)c23)cc1OC [Compound No. 35]")
"29.9 % Inh"
>>> readout_value("CC(=O)Nc1cc(F)cc(-c2nn(C3Cc4ccccc4C3)c3ncnc(N)c23)c1 [Compound No. 60]")
"16.91 % Inh"
>>> readout_value("COc1cc(-c2nn(C3Cc4ccccc4C3)c3ncnc(N)c23)ccc1C [Compound No. 49]")
"75.02 % Inh"
>>> readout_value("COc1cc(-c2nn(C3Cc4ccccc4C3)c3ncnc(N)c23)ccc1C(F)(F)F [Compound No. 69]")
"19.61 % Inh"
>>> readout_value("NC(=O)c1ccc(-c2nn(C3Cc4ccccc4C3)c3ncnc(N)c23)cc1O [compound 111]")
"17.47 % Inh"
>>> readout_value("Nc1ncnc2c1c(-c1ccc(Cl)c(O)c1)cn2C1Cc2ccccc2C1 [Compound No. 93]")
"96.32 % Inh"
>>> readout_value("Nc1ncnc2c1c(-c1ccc(F)c(O)c1)nn2C1Cc2ccccc2C1 [Compound No. 29]")
"90.90 % Inh"
>>> readout_value("Nc1ncnc2c1c(-c1ccc(Cl)c(O)c1F)nn2C1Cc2ccccc2C1 [Compound No. 100]")
"52.22 % Inh"
>>> readout_value("Nc1ncnc2c1c(-c1cc(O)cc(F)c1)nn2C1CCc2ccccc2C1 (single isomer, unassigned) [6b]")
"45.78 % Inh"
>>> readout_value("COc1cc(F)cc(-c2nn(C3Cc4ccccc4C3)c3ncnc(N)c23)c1 [compound 5]")
"26.26 % Inh"
>>> readout_value("Nc1ncnc2c1c(-c1cnc3[nH]ccc3c1)nn2C1CCc2ccccc2C1 (racemic) [compound 16]")
"24.0 % Inh"
>>> readout_value("Nc1ncnc2c1c(-c1ccc3[nH]c(O)nc3c1)nn2C1Cc2ccccc2C1 [compound 108]")
"6.6 % Inh"
>>> readout_value("Nc1ncnc2c1c(-c1cc(O)cc(F)c1)nn2C1CCc2ccccc2C1 (single isomer, unassigned) [6a]")
"63.12 % Inh"
>>> readout_value("NC(=O)c1cc(-c2cn(C3Cc4ccccc4C3)c3ncnc(N)c23)cc(O)c1F [compound 116]")
"47.8 % Inh"
>>> readout_value("Nc1ncnc2c1c(-c1cc(O)c(Cl)c(Cl)c1)nn2C1Cc2ccccc2C1 [compound 118]")
"65.15 % Inh"
>>> readout_value("Nc1ncnc2c1c(CCCO)nn2C1Cc2ccccc2C1 (single isomer, unassigned) [Compound No. 65]")
"4.02 % Inh"
>>> readout_value("C=CC(=O)N1CC(n2nc(-c3cc(O)cc(F)c3)c3c(N)ncnc32)Cc2cc(C)ccc21 (stereo not drawn) [compound 31]")
"68.24 % Inh"
>>> readout_value("Nc1ncnc2c1c(-c1ccc(Br)c(O)c1)nn2C1CCc2ccccc21 (stereo not drawn) [36b]")
"33.82 % Inh"
>>> readout_value("N#Cc1cc(-c2nn(C3Cc4ccccc4C3)c3ncnc(N)c23)ccc1F [Compound No. 97]")
"14.06 % Inh"
>>> readout_value("Nc1ncnc2c1c(-c1cc(O)cc(F)c1)cn2C1Cc2ccccc2C1 [Compound No. 63]")
"92.01 % Inh"
>>> readout_value("Nc1ncnc2c1c(-c1cc(O)c(F)c(F)c1)cn2C1Cc2ccccc2C1 [Compound No. 101]")
"94.7 % Inh"
>>> readout_value("Nc1ncnc2c1c(-c1cc(F)c3c(c1)NCCO3)nn2C1Cc2ccccc2C1 [Compound No. 84]")
"51.83 % Inh"
>>> readout_value("COc1ccc(-c2nn(C3Cc4ccccc4C3)c3ncnc(N)c23)cc1O [Compound No. 68]")
"54.54 % Inh"
>>> readout_value("Nc1ncnc2c1c(-c1ccc(F)c(O)c1)nn2C1CCc2ccccc2C1 (single isomer, unassigned) [Compound No. 26a]")
"84.11 % Inh"
>>> readout_value("Nc1ncnc2c1c(-c1cc(O)c(F)c(F)c1)c(Cl)n2C1Cc2ccccc2C1 [compound 134]")
"74.7 % Inh"
>>> readout_value("COc1cc(F)cc(-c2cn(C3Cc4ccccc4C3)c3ncnc(N)c23)c1 [Compound No. 62]")
"57.13 % Inh"
>>> readout_value("C=CC(=O)N1CC(n2nc(-c3cc(O)cc(F)c3)c3c(N)ncnc32)Cc2cc(C)ccc21 (single isomer, unassigned) [31b]")
"93.12 % Inh"
>>> readout_value("Nc1ncnc2c1c(-c1ccc(O)nc1)nn2C1CCc2ccccc2C1 (stereo not drawn) [compound 24]")
"5.45 % Inh"
>>> readout_value("CCOc1cc(-c2nn(C3Cc4ccccc4C3)c3ncnc(N)c23)ccc1OC(F)(F)F [Compound No. 76]")
"5.47 % Inh"
>>> readout_value("Nc1ncnc2c1c(-c1ccnc3[nH]ccc13)nn2C1Cc2ccccc2C1 [Compound No. 70]")
"12.11 % Inh"

====

Target: ITK (Homo sapiens)
Construct: purchased Reaction Biology Corporation
Sequence (Q08881 whole entry): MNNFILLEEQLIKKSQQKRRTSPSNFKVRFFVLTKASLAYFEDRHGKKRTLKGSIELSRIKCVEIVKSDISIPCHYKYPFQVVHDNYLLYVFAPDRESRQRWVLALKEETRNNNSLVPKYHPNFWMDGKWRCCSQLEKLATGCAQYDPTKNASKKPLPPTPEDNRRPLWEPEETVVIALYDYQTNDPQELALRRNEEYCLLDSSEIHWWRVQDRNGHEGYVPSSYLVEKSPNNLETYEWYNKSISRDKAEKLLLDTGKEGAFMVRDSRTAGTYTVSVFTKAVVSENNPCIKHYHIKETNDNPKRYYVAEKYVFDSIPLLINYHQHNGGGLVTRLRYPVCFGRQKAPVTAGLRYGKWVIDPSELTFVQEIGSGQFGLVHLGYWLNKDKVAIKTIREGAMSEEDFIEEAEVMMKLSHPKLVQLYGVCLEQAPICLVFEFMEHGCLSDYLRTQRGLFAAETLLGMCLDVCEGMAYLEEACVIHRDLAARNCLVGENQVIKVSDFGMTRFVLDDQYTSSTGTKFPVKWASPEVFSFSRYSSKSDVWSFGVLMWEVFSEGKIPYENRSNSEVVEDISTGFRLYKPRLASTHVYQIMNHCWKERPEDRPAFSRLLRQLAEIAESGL
Assay: ITK kinase profiling (BTK protocol)
Assay type: biochemical
Details: 0.3 μM compound
Here the recorded ITK @ 0.3 μM (% Inh) is given for each entry.
VALUE_KIND: ITK @ 0.3 μM (% Inh)

>>> readout_value("Nc1ncnc2c1c(-c1cc(O)cc(F)c1)nn2C1Cc2ccc(F)cc2C1 (centres unmarked) [compound 57]")
5.31
>>> readout_value("N#Cc1cc(-c2cn(C3Cc4ccccc4C3)c3ncnc(N)c23)cc(O)c1F [compound 115]")
"−9.43"
>>> readout_value("Nc1ncnc2c1c(-c1ccc(Cl)c(O)c1F)nn2C1Cc2ccccc2C1 [Compound No. 100]")
112.3
>>> readout_value("COc1ccc(-c2nn(C3Cc4ccccc4C3)c3ncnc(N)c23)cc1O [Compound No. 68]")
"−6.84"
>>> readout_value("Nc1ncnc2c1c(-c1cc(O)c(F)c(Cl)c1)cn2C1Cc2ccccc2C1 [compound 110]")
"−3.49"
>>> readout_value("Nc1ncnc2c1c(-c1cc(O)c(Cl)c(Cl)c1)cn2C1Cc2ccccc2C1 [Compound No. 107]")
"−5.41"
>>> readout_value("Nc1ncnc2c1c(-c1ccc(Br)c(O)c1)nn2C1CCc2ccccc2C1 (centres unmarked) [compound 8]")
0.02
>>> readout_value("Nc1ncnc2c1c(-c1ccc(Cl)c(O)c1)cn2C1Cc2ccccc2C1 [Compound No. 93]")
108.85

The origin of these recorded values is patent US20210317140A1.
